# study_system: T1, human serum albumin (Homo sapiens, UniProt P02768)
# T1 construct: human serum albumin (HSA), purchased from Sigma-Aldrich Japan; dissolved in phosphate buffer and dialysed; also called HSA; source: bought: Sigma-Aldrich Japan
# measurement_protocol: SPR; Biacore T200; HSA immobilised on CM5 chip by amine coupling (~1000 RU); increasing concentrations of antibodies injected at 30 μl/min; PBS with 0.05% Tween-20; global fit, 1:1 Langmuir model
# conditions: both partners purified
Give Condition met when the value for kon is at least 700000 M⁻¹ s⁻¹. Give Condition not met when it is less.

binder	assigned_label
Z18-V2L (VHH, IMGT numbering; the methods describe vector and expression for Z18 and Z26; source: E. coli BL21 (DE3), purified (Ni-NTA, SEC)) VHH: QLQLVESGGGLVQAGDSLRLSCAASGRTFSGYAMGWFRQAPGKEREFVARINWSGTLTYYADSVKGRFTGSRDNAKNTVYLQMNSLKPEDTAVYYCAQRGDSGSNYDPSGYSYWGQGTQVTVSS	Condition met
single-domain VHH antibody Z26 (VHH, differs from Z18 at nine residues; pRA2 vector with N-terminal pelB signal peptide; also called wild-type Z26; source: E. coli BL21 (DE3), purified (Ni-NTA, SEC); not shown: hexa-histidine, C-terminal, kept) VHH: QLQLVESGGGLVQAGDSLRLSCAASGRTFSDYAMGWFRQAPGKELEFVARVNWSGLLTYYADSVKGRFTASRDNAKSTVYLQMNSLKPEDTAVYYCAQRGDSGSNFDPSGYRYWGQGTQVTVSS	Condition met
Z18-G78A (VHH, IMGT numbering; the methods describe vector and expression for Z18 and Z26; source: E. coli BL21 (DE3), purified (Ni-NTA, SEC)) VHH: QVQLVESGGGLVQAGDSLRLSCAASGRTFSGYAMGWFRQAPGKEREFVARINWSGTLTYYADSVKGRFTASRDNAKNTVYLQMNSLKPEDTAVYYCAQRGDSGSNYDPSGYSYWGQGTQVTVSS	Condition not met
Z18-S133R (VHH, IMGT numbering; the methods describe vector and expression for Z18 and Z26; source: E. coli BL21 (DE3), purified (Ni-NTA, SEC)) VHH: QVQLVESGGGLVQAGDSLRLSCAASGRTFSGYAMGWFRQAPGKEREFVARINWSGTLTYYADSVKGRFTGSRDNAKNTVYLQMNSLKPEDTAVYYCAQRGDSGSNYDPSGYRYWGQGTQVTVSS	Condition met
single-domain VHH antibody Z18 (VHH, pRA2 vector with N-terminal pelB signal peptide; also called wild-type Z18; source: E. coli BL21 (DE3), purified (Ni-NTA, SEC); not shown: hexa-histidine, C-terminal, kept) VHH: QVQLVESGGGLVQAGDSLRLSCAASGRTFSGYAMGWFRQAPGKEREFVARINWSGTLTYYADSVKGRFTGSRDNAKNTVYLQMNSLKPEDTAVYYCAQRGDSGSNYDPSGYSYWGQGTQVTVSS	Condition met
Z18-Y114F (VHH, IMGT numbering; the methods describe vector and expression for Z18 and Z26; source: E. coli BL21 (DE3), purified (Ni-NTA, SEC)) VHH: QVQLVESGGGLVQAGDSLRLSCAASGRTFSGYAMGWFRQAPGKEREFVARINWSGTLTYYADSVKGRFTGSRDNAKNTVYLQMNSLKPEDTAVYYCAQRGDSGSNFDPSGYSYWGQGTQVTVSS	Condition met
Z18-G32D/R50L/G78A/S133R (VHH, IMGT numbering; the methods describe vector and expression for Z18 and Z26; source: E. coli BL21 (DE3), purified (Ni-NTA, SEC)) VHH: QVQLVESGGGLVQAGDSLRLSCAASGRTFSDYAMGWFRQAPGKELEFVARINWSGTLTYYADSVKGRFTASRDNAKNTVYLQMNSLKPEDTAVYYCAQRGDSGSNYDPSGYRYWGQGTQVTVSS	Condition not met
Z18-I56V (VHH, IMGT numbering; the methods describe vector and expression for Z18 and Z26; source: E. coli BL21 (DE3), purified (Ni-NTA, SEC)) VHH: QVQLVESGGGLVQAGDSLRLSCAASGRTFSGYAMGWFRQAPGKEREFVARVNWSGTLTYYADSVKGRFTGSRDNAKNTVYLQMNSLKPEDTAVYYCAQRGDSGSNYDPSGYSYWGQGTQVTVSS	Condition met
Z18-R50L/G78A/S133R (VHH, IMGT numbering; the methods describe vector and expression for Z18 and Z26; source: E. coli BL21 (DE3), purified (Ni-NTA, SEC)) VHH: QVQLVESGGGLVQAGDSLRLSCAASGRTFSGYAMGWFRQAPGKELEFVARINWSGTLTYYADSVKGRFTASRDNAKNTVYLQMNSLKPEDTAVYYCAQRGDSGSNYDPSGYRYWGQGTQVTVSS	Condition met

Could you verify whether the entry Z18-T61L (VHH, IMGT numbering; the methods describe vector and expression for Z18 and Z26; source: E. coli BL21 (DE3), purified (Ni-NTA, SEC)) VHH: QVQLVESGGGLVQAGDSLRLSCAASGRTFSGYAMGWFRQAPGKEREFVARINWSGLLTYYADSVKGRFTGSRDNAKNTVYLQMNSLKPEDTAVYYCAQRGDSGSNYDPSGYSYWGQGTQVTVSS shows kon of no less than 700000 M⁻¹ s⁻¹?
Condition met
